Values from ChEMBL document CHEMBL1201862

Parameter GI50: see the listing below.
- System: UACC-257
- Assay name: NCI tumour cell line growth inhibition, 48 h
The source made the active and inactive calls. Cut-off read from the data, not from the text of the source: active = GI50 up to about 1.1 µM and inactive = higher.

Some compounds with recorded GI50:
O=c1oc2ccccc2cc1P(=O)(O)O ... > 100 µM (inactive)
Nc1ccccc1C(=O)CC1OC(=O)c2ccccc21 (stereo unspecified) ... > 100 µM (inactive)
Cc1nc2c(o1)/C(=N\c1ccccc1)c1ccccc1C2=O ... 5.97 µM (inactive)
Nc1c(Cl)c([N+](=O)[O-])cc2c1OCCCCO2 ... > 100 µM (inactive)
CC(=O)c1ccc(O)c(CN(C2CCCCC2)C2CCCCC2)c1O ... > 100 µM (inactive)

Data point: CCNc1nc2c(ncn2C2CC(O)C(COP(=O)(O)O)O2)c(=O)[nH]1 (stereo unspecified) ; GI50 = > 100 µM (inactive)

Data point: COC(=O)[C@@H]1OC(C)(c2ccccc2)O[C@H]1C(=O)OC ; GI50 = > 100 µM (inactive)

Data point: CN1C(=O)C23CCCC2CC1(c1ccccc1)S3 (stereo unspecified) ; GI50 = 23 µM (inactive)

Data point: N#CC1N(C(=O)c2ccc(F)cc2)c2ccccc2N1C(=O)c1ccc(F)cc1 ; GI50 = 67.6 µM (inactive)

Data point: O=C(CCCn1cnc([N+](=O)[O-])n1)NCCCn1ccnc1[N+](=O)[O-] ; GI50 = > 100 µM (inactive)

Data point: CCOC(=O)Cn1nc2ccc(Nc3c(C)[n+]([O-])c4cc(F)c(OCC)cc4[n+]3[O-])cc2n1 ; GI50 = > 100 µM (inactive)
